Target: T1, TTD of UHRF1 (residues 134–285) (human, UniProt Q96T88 134-285)
T1 chain: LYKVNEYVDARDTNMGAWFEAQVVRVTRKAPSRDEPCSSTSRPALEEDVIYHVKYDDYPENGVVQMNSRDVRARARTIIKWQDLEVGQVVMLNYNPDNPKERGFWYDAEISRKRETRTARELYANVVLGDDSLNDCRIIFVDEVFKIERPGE
Test: ITC; in presence of SRA
Experimental Endpoint: pKd
For clarity, pKd is expressed as the negative log10 of concentration in mol/L.

// query Give a short answer stating reported pKd for ARTKQTARKSTGGKAPR (trimethyl-lysine at K9) [H3K9me3 peptide (1–17)] .
// result 6.06
